System: murine neural precursor cells (neurosphere cultures)
Experiment: HTS of LOPAC library against secondary neurosphere cultures, MTT proliferation assay at 3 μM, day 7 (z score, P value)
Format: cell-based, mouse
Conditions: 168 h, 3 µM
Examples of molecules with documented Z Score follow.
Lab note: record the figure alone, no unit after it.

// known answers, use as guide
{"columns": ["Molecule", "Measured Endpoint", "Observed Value"],
 "data": [
  ["CCCn1c(=O)c2c(ncn2C)n(CCC)c1=O", "Z Score", "−0.08896"],
  ["C[C@H](O)C(=O)C1=Nc2c(nc(N)[nH]c2=O)NC1 [Sepiapterin]", "Z Score", 1.795],
  ["NCCCCCCCCCCN", "Z Score", 0.1393],
  ["O=C(/C=C/c1ccc(O)c(O)c1)OCCc1ccccc1", "Z Score", 1.306],
  ["CCCCCCCC/C=C\\CCCCCCCC(=O)NCCO", "Z Score", "−0.4116"],
  ["Cn1cnc2c1c(=O)[nH]c(=O)n2C", "Z Score", "−1.392"],
  ["Br.CCSC(=N)N [S-Ethylisothiourea hydrobromide]", "Z Score", "−1.599"],
  ["NC(=O)CC[C@H](N)C(=O)O", "Z Score", 0.8278]
]}

**Query** Reported Z Score for CCC(C)N(C)C(=O)c1cc2ccccc2c(-c2ccccc2Cl)n1 (stereo not shown) : what is it?
**Result** −0.4676

**Query** I would be grateful if you could share the reported Z Score for "CC(C)Cn1c(=O)n(C)c(=O)c2[nH]cnc21" .
**Result** −0.774

* * *

This listing pairs compounds with measured Z Score.
Test system: murine neural precursor cells (neurosphere cultures)
Assay: HTS of LOPAC library against secondary neurosphere cultures, MTT proliferation assay at 3 μM, day 7 (z score, P value)
Assay type: cell-based, mouse
Details: LOPAC library screen, 3 μM, MTT, secondary neurosphere cultures, day 7

Worked examples follow.
{"columns": ["Compound", "Z Score"],
 "data": [
  ["O=C(C1CCCCC1)N1CC(=O)N2CCc3ccccc3C2C1 (stereo not shown) [Praziquantel]", "−2.296"],
  ["CN1[C@@H]2CC[C@H]1C[C@@H](OC(c1ccccc1)c1ccccc1N)C2 (stereo partly shown) [Aminobenztropine]", "−1.455"],
  ["CC(C(O)c1ccc(O)cc1)N1CCC(Cc2ccccc2)CC1 (stereo not shown) [Ifenprodil (9), Ifenprodil]", "−8.904"]
]}

**Query** Record request: Z Score value, item CC(=O)O[C@]1(C(C)=O)CC[C@H]2[C@@H]3C=C(Cl)C4=CC(=O)[C@@H]5C[C@@H]5[C@]4(C)[C@H]3CC[C@@]21C [Cyproterone acetate]
**Result** −1.803

* * *

Tested on: murine neural precursor cells (neurosphere cultures)
Test: HTS of LOPAC library against secondary neurosphere cultures, MTT proliferation assay at 3 μM, day 7 (z score, P value)
Format: cell-based, mouse
Settings: 168 h, 3 µM
Structures can show the parent of a compound that is named as a salt.
Binary call on Z score with cut-off -2: strictly below means 1 (yes), and equality or higher means 0 (no).

Worked set:
{"columns": ["Compound", "Class Assignment"],
 "data": [
  ["COc1ccc2c(c1)c(CC(=O)N1CCOCC1)c(C)n2C(=O)c1ccc(Cl)cc1 [Indomethacin morpholinylamide]", "1 (yes)"],
  ["O=C1Cc2c([nH]c3ccc(Br)cc23)-c2ccccc2N1", "0 (no)"],
  ["CC1(C)CCC2=C(O1)c1ccccc1C(=O)C2=O", "1 (yes)"]
]}

**Query** Please let me know if O=C(c1ccc(F)cc1)C1CCN(CCn2c(=O)[nH]c3ccccc3c2=O)CC1 [Ketanserin tartrate] shows Z score below -2.
**Result** 1 (yes)

**Query** I wonder whether "O=c1c(O)c(-c2ccc(O)cc2O)oc2cc(O)cc(O)c12" has Z score below -2. Can you tell?
**Result** 1 (yes)

**Query** I wonder whether O=C1O/C(=C/Br)CCC1c1cccc2ccccc12 (stereo not drawn) has Z score below -2. Can you tell?
**Result** 0 (no)

**Query** For this compound, is Z score lower than -2? "COc1ccccc1N1CCN(CCCCNC(=O)c2ccc3ccccc3c2)CC1"
**Result** 0 (no)

**Query** For this compound, is Z score lower than -2? "CC(=O)C(C)=NO"
**Result** 0 (no)

**Query** Identify whether the compound Cl.N=c1c[n+](N2CCOCC2)[n-]o1 [3-Morpholinosydnonimine hydrochloride] records Z score below -2.
**Result** 0 (no)
